assay: Cytotoxicity against human EVC304 cells after 24 hrs by MTT assay; format: cell-based; conditions: EVC304, 24 h
READOUT NAME: IC50 (µM)
Report only the number, with the unit µM understood.

(Q) Please give measured IC50 of the following entry: CC1(C)CC[C@]2(C(=O)O[C@@H]3O[C@H](CO[C@@H]4O[C@H](COC(=O)C[C@@](C)(O)CC(=O)O)[C@@H](O)[C@H](O)[C@H]4O[C@@H]4O[C@H](CO)[C@@H](O)[C@H](O)[C@H]4O)[C@@H](O)[C@H](O[C@@H]4O[C@H](CO)[C@@H](O)[C@H](O)[C@H]4O)[C@H]3O)CC[C@]3(C)C(=CC[C@@H]4[C@@]5(C)CC[C@H](O)[C@@](C)(C(=O)O)[C@@H]5CC[C@]43C)[C@@H]2C1 [DIANVERSICOSIDE D]
(A) 3.9

(Q) Please give measured IC50 of the following entry: CC1(C)CC[C@]2(C(=O)O[C@@H]3O[C@H](CO[C@@H]4O[C@H](CO)[C@@H](O)[C@H](O)[C@H]4O[C@@H]4O[C@H](CO)[C@@H](O)[C@H](O)[C@H]4O)[C@@H](O)[C@H](O[C@@H]4O[C@H](CO)[C@@H](O)[C@H](O)[C@H]4O)[C@H]3O)[C@H](O)C[C@]3(C)C(=CC[C@@H]4[C@@]5(C)CC[C@H](O)[C@@](C)(C(=O)O[C@@H]6O[C@H](CO)[C@@H](O)[C@H](O)[C@H]6O)[C@@H]5CC[C@]43C)[C@@H]2C1 [DIANVERSICOSIDE E]
(A) 9.1

(Q) Please give measured IC50 of the following entry: CC1(C)CC[C@]2(C(=O)O[C@@H]3O[C@H](CO[C@@H]4O[C@H](COC(=O)C[C@@](C)(O)CC(=O)O)[C@@H](O)[C@H](O)[C@H]4O[C@@H]4O[C@H](CO)[C@@H](O)[C@H](O)[C@H]4O)[C@@H](O)[C@H](O)[C@H]3O)[C@H](O)C[C@]3(C)C(=CC[C@@H]4[C@@]5(C)CC[C@H](O)[C@@](C)(C(=O)O[C@@H]6O[C@H](CO)[C@@H](O)[C@H](O)[C@H]6O)[C@@H]5CC[C@]43C)[C@@H]2C1 [DIANVERSICOSIDE A]
(A) 8.4

All values here come from ChEMBL document CHEMBL1151850.
